I'd appreciate it if you could supply Kd values for the items below.
target.or.test.system: CYP154C3-1 (Streptomyces sp.)
Construct: full-length CDS 1,239 bp (412 residues), N-terminal Trx-His-S-enterokinase fusion from pET32a(+) kept, E. coli C41(DE3), ~65 kDa on SDS-PAGE (~45 kDa theoretical without fusion), heme protein
Sequence (A0A2H4WK73 1-414): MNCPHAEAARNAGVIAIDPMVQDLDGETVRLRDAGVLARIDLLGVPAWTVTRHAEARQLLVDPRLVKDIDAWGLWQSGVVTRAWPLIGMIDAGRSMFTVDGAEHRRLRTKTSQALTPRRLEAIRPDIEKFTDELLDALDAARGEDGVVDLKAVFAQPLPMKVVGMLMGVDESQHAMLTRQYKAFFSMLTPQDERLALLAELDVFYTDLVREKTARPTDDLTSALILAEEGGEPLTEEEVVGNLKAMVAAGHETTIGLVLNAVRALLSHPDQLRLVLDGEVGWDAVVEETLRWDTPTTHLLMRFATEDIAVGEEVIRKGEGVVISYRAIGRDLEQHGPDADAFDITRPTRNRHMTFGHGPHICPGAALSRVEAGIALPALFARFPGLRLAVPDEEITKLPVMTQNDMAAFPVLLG
assay.name: type I spectral shift titration (A390-A420), tight-binding quadratic fit
Design: species or system Streptomyces sp. W2061
Give bare numbers, in µM.

As a guide, the following entries are already answered.
entry_smiles=C[C@]12CCC(=O)C=C1CC[C@@H]1[C@@H]2CC[C@]2(C)C(=O)CC[C@@H]12 quantitative_result=0.351
entry_smiles=C[C@]12C[C@H](O)[C@H]3[C@@H](CCC4=CC(=O)CC[C@@]43C)[C@@H]1CC[C@@H]2C(=O)CO quantitative_result=14.1
entry_smiles=C[C@]12CCC(=O)C=C1CC[C@@H]1[C@@H]2C(=O)C[C@]2(C)C(=O)CC[C@@H]12 quantitative_result=0.318

Next molecule, Kd to be filled in.
q: Name the reported Kd value associated with the molecule `C[C@]12CC[C@H]3[C@@H](CCC4=CC(=O)CC[C@@H]43)[C@@H]1CC[C@@H]2O`
a: 13.5
